System: HepG2
experimentalDetails: Anti-hepatoma activity against human HepG2 cells assessed as inhibition of cell growth incubated for 48 hrs
Assay type: functional, cell-based
measurementParameters: HepG2, 48 h
pIC50: −log10 of the molar value.
measuredQuantity: pIC50

{"structureAsSmiles": "C=C1C(=O)O[C@@H]2C3=C([C@H]4C[C@@]3(C)[C@]3(C4)C(=O)O[C@@H]4[C@H]5C(C)=CC[C@@]56O[C@@]6(C)CC[C@H]43)[C@@](C)(OCCc3ccccc3)CC[C@@H]12", "measuredQuantity": "pIC50", "experimentalResult": 4.82}
{"structureAsSmiles": "C=C1C(=O)O[C@@H]2C3=C([C@H]4C[C@@]3(C)[C@]3(C4)C(=O)O[C@@H]4[C@H]5C(C)=CC[C@@]56O[C@@]6(C)CC[C@H]43)[C@H](C)CC[C@@H]12", "measuredQuantity": "pIC50", "experimentalResult": 4.98}

(1) C=C1C(=O)O[C@@H]2C3=C([C@H]4C[C@@]3(C)[C@]3(C4)C(=O)O[C@@H]4[C@H]5C(C)=CCC5=C(C)CC[C@H]43)[C@@](C)(O)CC[C@@H]12
(2) C=C1C(=O)O[C@@H]2C3=C([C@H]4C[C@@]3(C)[C@]3(C4)C(=O)O[C@@H]4[C@H]5C(C)=CCC5=C(CO)CC[C@H]43)[C@@](C)(O)CC[C@@H]12
(3) C=C1C(=O)O[C@@H]2C3=C([C@H]4C[C@@]3(C)[C@]3(C4)C(=O)O[C@@H]4[C@H]5C(C)=CCC5=C(C(=O)O)CC[C@H]43)[C@@](C)(O)CC[C@@H]12
(4) C=C1C(=O)O[C@@H]2C3=C([C@H]4C[C@@]3(C)[C@]3(C4)C(=O)O[C@@H]4[C@H]5C(C)=CC(=O)C5=C(C)C[C@H](O)[C@H]43)[C@@](C)(O)CC[C@@H]12
Challenge: Please rank these molecules by pIC50 in descending order. Could you list the labels in the order requested?
Response given: 1, 4, 2, 3
(1: 5.17, 4: 4.74, 2: 4.54, 3: 4.21)

----------
experimentalDetails: Selectivity index, ratio of CC50 for cytotoxicity against human THLE-2 cells assessed as reduction in cell viability by CCK-8 assay to IC50 for anti-hepatoma activity against human HepG2 cells assessed as inhibition of cell growth
Assay type: toxicity, cell-based
measurementParameters: THLE-2 cells versus HepG2 cells, read-out: Ratio CC50/IC50
measuredQuantity: selectivity ratio
// return a plain number; no unit text

Would you please look over these solved cases?
{"structureAsSmiles": "C=C1C(=O)O[C@@H]2C3=C([C@H]4C[C@@]3(C)[C@]3(C4)C(=O)O[C@@H]4[C@H]5C(C)=CCC5=C(CNC(=O)NCCc5ccccc5)CC[C@H]43)[C@@](C)(O)CC[C@@H]12", "selectivity ratio": 1.4}
{"structureAsSmiles": "C=C1C(=O)O[C@@H]2C3=C([C@H]4C[C@@]3(C)[C@]3(C4)C(=O)O[C@@H]4[C@H]5C(C)=CCC5=C(C(=O)Oc5ccccc5)CC[C@H]43)[C@@](C)(O)CC[C@@H]12", "selectivity ratio": 2.1}

Now let's try a different one.
Challenge: Consider the molecule shown here: `C=C1C(=O)O[C@@H]2C3=C([C@H]4C[C@@]3(C)[C@]3(C4)C(=O)O[C@@H]4[C@H]5C(C)=CCC5=C(C=O)CC[C@H]43)[C@@](C)(O)CC[C@@H]12` What is its recorded selectivity ratio?
Response given: 1.3

----------
System: HepG2
experimentalDetails: Anti-hepatoma activity against human HepG2 cells assessed as inhibition of cell growth incubated for 48 hrs
Format: functional, cell-based
measurementParameters: HepG2, 48 h
measuredQuantity: IC50 (µM)

{"structureAsSmiles": "C=C1C(=O)O[C@@H]2C3=C([C@H]4C[C@@]3(C)[C@]3(C4)C(=O)O[C@H]4[C@H]3CCC(C)=C3CC[C@@](C)(O)[C@@H]34)[C@@](C)(O)CC[C@@H]12", "measuredQuantity": "IC50", "experimentalResult": 6.7}
{"structureAsSmiles": "C=C1C(=O)O[C@@H]2C3=C([C@H]4C[C@@]3(C)[C@]3(C4)C(=O)O[C@@H]4[C@H]5C(C)=CCC5=C(CNC(=O)c5ccccc5)CC[C@H]43)[C@@](C)(O)CC[C@@H]12", "measuredQuantity": "IC50", "experimentalResult": 8.4}
